Study target: TXA2 receptor (Homo sapiens, UniProt P21731)
Construct: determined via the human platelet-based assay of Hedberg et al; from tissue; host or cells: human platelets
Sequence (P21731 whole entry): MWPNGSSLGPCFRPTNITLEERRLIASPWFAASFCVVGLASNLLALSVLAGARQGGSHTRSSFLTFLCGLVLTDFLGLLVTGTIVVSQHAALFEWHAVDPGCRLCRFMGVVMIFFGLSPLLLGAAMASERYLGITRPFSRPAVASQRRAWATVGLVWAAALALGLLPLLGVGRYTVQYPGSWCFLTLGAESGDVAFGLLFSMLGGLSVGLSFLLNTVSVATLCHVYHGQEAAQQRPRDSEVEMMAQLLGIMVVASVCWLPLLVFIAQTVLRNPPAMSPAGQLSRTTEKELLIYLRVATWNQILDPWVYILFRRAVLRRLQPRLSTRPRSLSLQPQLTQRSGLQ
Assay remarks: TXA2 binding assay, [3H]SQ 29,548, human platelet-based
Run parameters: 10 μM; inhibition of [3H]SQ 29,548 binding, human platelets
Short version: inhibition at 10 µM at least 40% is criterion met, less is criterion not met.

Ask: For this compound, is measured inhibition at 10 µM 40% or higher? CCC1C(C)=NN=C(c2ccc(OC)c(OC)c2)c2cc(O)c(OC)cc21 (racemic) [Compound 2]
Result: criterion met

Ask: For this compound, is measured inhibition at 10 µM 40% or higher? CCC1C(C)=NN=C(c2ccc(O)c(OC)c2)c2cc(OC)c(O)cc21 (stereo not drawn) [Compound 5]
Result: criterion met

Ask: For this compound, is measured inhibition at 10 µM 40% or higher? CCC1C(C)=NN=C(c2ccc(OC)c(OC)c2)c2cc(OC)c(O)cc21 (stereo not drawn) [Compound 1]
Result: criterion met

Ask: For this compound, is measured inhibition at 10 µM 40% or higher? CCC1C(C)=NN=C(c2ccc(OC)c(O)c2)c2cc(OC)c(O)cc21 (stereo not drawn) [Compound 6]
Result: criterion met

Ask: For this compound, is measured inhibition at 10 µM 40% or higher? CCC1C(C)=NN=C(c2ccc(O)c(OC)c2)c2cc(OC)c(OC)cc21 (stereo not drawn) [Compound 3]
Result: criterion not met

Ask: For this compound, is measured inhibition at 10 µM 40% or higher? CCC1C(C)=NN=C(c2ccc(OC)c(O)c2)c2cc(OC)c(OC)cc21 (stereo not drawn) [Compound 4]
Result: criterion not met

###

For each of the compounds below, state its inhibition at 10 µM.
Study target: LTB4 receptor (Cavia porcellus)
Construct: 1.0 mg/mL of the Guinea pig spleen membrane preparation; from tissue; host or cells: guinea pig spleen membranes
Sequence (H0VYV8 1-348): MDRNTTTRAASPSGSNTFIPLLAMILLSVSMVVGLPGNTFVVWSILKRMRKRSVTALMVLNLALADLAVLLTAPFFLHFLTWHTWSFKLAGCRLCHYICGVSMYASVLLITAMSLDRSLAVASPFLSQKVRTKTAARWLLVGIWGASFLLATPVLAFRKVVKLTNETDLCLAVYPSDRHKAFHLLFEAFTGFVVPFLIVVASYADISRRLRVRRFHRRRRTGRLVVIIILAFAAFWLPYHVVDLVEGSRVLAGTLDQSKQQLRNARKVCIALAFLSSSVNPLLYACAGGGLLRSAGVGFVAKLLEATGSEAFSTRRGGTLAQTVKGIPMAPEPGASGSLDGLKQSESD
Assay remarks: Inhibition of [3H]LTB4 binding, guinea pig spleen membrane assay
Could you give me the number in %? Just the number is fine.

Ask: Supply inhibition at 10 µM value. Item: CCC1C(C)=NN=C(c2ccc(OC)c(OC)c2)c2cc(OC)c(O)cc21 (stereo not shown) [Compound 1]
Result: 20.4

Ask: Supply inhibition at 10 µM value. Item: CCC1C(C)=NN=C(c2ccc(OC)c(OC)c2)c2cc(O)c(OC)cc21 (racemic) [Compound 2]
Result: 36

Ask: Supply inhibition at 10 µM value. Item: CCC1C(C)=NN=C(c2ccc(O)c(OC)c2)c2cc(OC)c(OC)cc21 (stereo not shown) [Compound 3]
Result: 49.9

Ask: Supply inhibition at 10 µM value. Item: CCC1C(C)=NN=C(c2ccc(OC)c(O)c2)c2cc(OC)c(OC)cc21 (stereo not shown) [Compound 4]
Result: 63.9

###

System: adenosine receptor
Assay remarks: Adenosine binding assay, [3H]-NECA, bovine striatal membrane
Description: The ability of 1-(3,4-dimethoxyphenyl)-4-methyl-5-ethyl-7-methoxy-8-hydroxy-5H-2,3-benzodiazepine to inhibit the binding of [^3H]5′-N-ethylcarboxamidoadenosine (NECA) (15-30 Ci/mmol) was determined via the bovine striatal membrane assay of Bruns et al., “Characterization of the A2 Adenosine Receptor Labeled by [^3H]-NECA in Rat Striatal Membrane”, Pharmacology, 29: 331-346 (1986), with modifications. […]
For each of the compounds below, state its Adenosine non-selective @ 10 μM (inhibition of [3H]-NECA binding).

Ask: Supply Adenosine non-selective @ 10 μM (inhibition of [3H]-NECA binding) value. Item: CCC1C(C)=NN=C(c2ccc(OC)c(OC)c2)c2cc(O)c(OC)cc21 (racemic)
Result: 61.50%

Ask: Supply Adenosine non-selective @ 10 μM (inhibition of [3H]-NECA binding) value. Item: CCC1C(C)=NN=C(c2ccc(O)c(OC)c2)c2cc(OC)c(O)cc21 (stereo not drawn)
Result: 22.40%

Ask: Supply Adenosine non-selective @ 10 μM (inhibition of [3H]-NECA binding) value. Item: CCC1C(C)=NN=C(c2ccc(OC)c(O)c2)c2cc(OC)c(OC)cc21 (stereo not drawn)
Result: 4.26%

Ask: Supply Adenosine non-selective @ 10 μM (inhibition of [3H]-NECA binding) value. Item: CCC1C(C)=NN=C(c2ccc(OC)c(O)c2)c2cc(OC)c(O)cc21 (stereo not drawn)
Result: 27.52%

Ask: Supply Adenosine non-selective @ 10 μM (inhibition of [3H]-NECA binding) value. Item: CCC1C(C)=NN=C(c2ccc(OC)c(OC)c2)c2cc(OC)c(O)cc21 (stereo not drawn)
Result: 6.73%

Values compiled from patent US7745431B2.
